Molecular target: ATP-dependent translocase ABCB1 (Homo sapiens, UniProt P08183)
Sequence (P08183 whole entry): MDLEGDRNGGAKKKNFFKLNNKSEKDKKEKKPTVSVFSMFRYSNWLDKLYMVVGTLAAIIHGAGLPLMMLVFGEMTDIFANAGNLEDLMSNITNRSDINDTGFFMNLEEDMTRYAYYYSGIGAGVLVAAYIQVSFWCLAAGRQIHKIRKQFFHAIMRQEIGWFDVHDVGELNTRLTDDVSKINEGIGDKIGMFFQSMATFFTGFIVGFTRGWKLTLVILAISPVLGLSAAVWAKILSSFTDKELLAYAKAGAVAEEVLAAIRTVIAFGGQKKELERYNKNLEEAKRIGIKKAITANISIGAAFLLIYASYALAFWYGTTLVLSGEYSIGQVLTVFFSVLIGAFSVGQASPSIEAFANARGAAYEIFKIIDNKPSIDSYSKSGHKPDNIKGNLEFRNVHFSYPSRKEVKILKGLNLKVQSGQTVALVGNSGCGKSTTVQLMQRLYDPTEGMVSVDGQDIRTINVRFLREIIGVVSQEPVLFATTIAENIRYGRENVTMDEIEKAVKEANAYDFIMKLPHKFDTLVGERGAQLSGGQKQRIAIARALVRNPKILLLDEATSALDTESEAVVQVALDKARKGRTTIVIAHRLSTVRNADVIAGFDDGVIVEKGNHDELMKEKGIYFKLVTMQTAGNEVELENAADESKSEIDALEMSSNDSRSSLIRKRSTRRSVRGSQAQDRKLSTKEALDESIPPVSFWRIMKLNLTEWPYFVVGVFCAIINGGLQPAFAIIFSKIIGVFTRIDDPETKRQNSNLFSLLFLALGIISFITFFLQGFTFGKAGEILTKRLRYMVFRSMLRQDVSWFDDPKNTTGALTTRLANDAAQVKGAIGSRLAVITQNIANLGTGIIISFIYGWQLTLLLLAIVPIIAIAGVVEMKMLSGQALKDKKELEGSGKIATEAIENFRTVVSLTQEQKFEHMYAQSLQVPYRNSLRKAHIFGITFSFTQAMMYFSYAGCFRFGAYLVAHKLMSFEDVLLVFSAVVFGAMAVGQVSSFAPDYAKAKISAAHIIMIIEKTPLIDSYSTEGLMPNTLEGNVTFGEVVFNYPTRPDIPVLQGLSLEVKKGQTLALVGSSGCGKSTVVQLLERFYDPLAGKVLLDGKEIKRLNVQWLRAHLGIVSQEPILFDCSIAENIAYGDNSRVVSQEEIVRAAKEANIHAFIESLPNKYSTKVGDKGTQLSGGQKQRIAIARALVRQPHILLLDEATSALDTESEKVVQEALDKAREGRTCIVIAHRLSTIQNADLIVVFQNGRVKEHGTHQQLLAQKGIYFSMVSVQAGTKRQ
Test: Human MDR1 Pgp inhibitory activity by using standard calcein-AM efflux method with the human leukemia CEM cells.
Assay type: cell-based, CCRF-CEM
Square brackets hold non-standard residues; d marks the D form. Peptide text beside a SMILES is read from it. Hmp(2R,3S) = CC[C@H](C)[C@@H](O)C(=O)O; NMeVal(β-OH) = CN[C@H](C(=O)O)C(C)(C)O; NMeF = CN[C@@H](Cc1ccccc1)C(=O)O; NMeV = CN[C@H](C(=O)O)C(C)C
Exercise: state measured pIC50 for each of the molecules provided.
Please report pIC50 as the negative decimal logarithm of the molar concentration, giving only the number.

Recorded pIC50 of CC[C@H](C)[C@@H]1NC(=O)[C@@H]2CCCN2C(=O)[C@@H](Cc2ccccc2)N(C)C(=O)[C@H](Cc2ccccc2)NC(=O)[C@H](C(C)C)N(C)C(=O)[C@@H]([C@@H](C)CC)OC(=O)[C@H](C(C)(C)O)N(C)C(=O)[C@H](CC(C)C)NC(=O)[C@H](C(C)C)N(C)C1=O , please.
5.56

Recorded pIC50 of CC[C@H](C)[C@@H]1NC(=O)[C@@H]2CCCN2C(=O)[C@@H](C)N(C)C(=O)[C@H](Cc2ccc(OCC3CCCCC3)cc2)NC(=O)[C@H](C(C)C)N(C)C(=O)[C@@H]([C@@H](C)CC)OC(=O)[C@H](C(C)(C)O)N(C)C(=O)[C@H](CC(C)C)NC(=O)[C@H](C(C)C)N(C)C1=O , please.
5.68

Recorded pIC50 of CC[C@H](C)[C@@H]1NC(=O)[C@@H]2CCCN2C(=O)[C@@H](C)N(C)C(=O)[C@H](Cc2ccc(O)cc2)NC(=O)[C@H](C(C)C)N(C)C(=O)[C@@H]([C@@H](C)CC)OC(=O)[C@H](C(C)(C)O)N(C)C(=O)[C@H](CC(C)C)NC(=O)[C@H](C(C)C)N(C)C1=O , please.
5.24

Recorded pIC50 of CC[C@@H](C)[C@@H]1NC(=O)[C@@H]2CCCN2C(=O)[C@H](Cc2ccccc2)N(C)C(=O)[C@H](Cc2ccccc2)NC(=O)[C@H](C(C)C)N(C)C(=O)[C@@H](C(C)C)OC(=O)[C@H](C(C)(C)O)N(C)C(=O)[C@H](CC(C)C)NC(=O)[C@H](C(C)C)N(C)C1=O , please.
5.96

Recorded pIC50 of CC[C@H](C)[C@H]1OC(=O)[C@H](C(C)(C)O)N(C)C(=O)[C@H](CC(C)C)NC(=O)[C@H](C(C)C)N(C)C(=O)[C@H](C(C)C)NC(=O)[C@@H]2CCCN2C(=O)[C@H](Cc2ccccc2)N(C)C(=O)[C@H](Cc2ccccc2)NC(=O)[C@H](C(C)C)N(C)C1=O (cyclo(F[NMeF]PV[NMeV]L[NMeVal(β-OH)][Hmp(2R,3S)][NMeV])) , please.
5.89

Recorded pIC50 of CC[C@H](C)[C@@H]1NC(=O)[C@@H]2CCCN2C(=O)[C@H](Cc2ccccc2)N(C)C(=O)[C@H](Cc2ccccc2)NC(=O)[C@H](C(C)C)N(C)C(=O)[C@@H]([C@@H](C)CC)OC(=O)C(C(C)(C)O)N(C)C(=O)[C@H](CC(C)C)NC(=O)[C@H](C(C)C)N(C)C1=O (some centres undefined) , please.
6.44
